Please provide measured pIC50 for the entries that follow.
- Tested on: Target C
- assayRemarks: RT-qPCR canonical junction panel assay, Target C mRNA
- Format: cell-based
- testParameters: Table 4, read-out: Target C IC50 (decrease in CJ mRNA levels)
pIC50: −log10 of the molar value. Where a name gives a salt, the structure may show the parent alone.

Some molecules with recorded pIC50:
• Cn1cc2cc(-c3ccc4nc(N5CCC(NC6CCC6)C5)ccc4n3)c(O)c(F)c2n1 (stereo not shown) [Compound 315] = > 7.00
• C[C@@H]1CN(c2cc(F)c3nc(-c4cc5cn(C)nc5c(F)c4O)ccc3c2)C[C@H](C)N1 [Compound 763, hydrochloride] = 5.00 to 6.00
• Cc1cn2nc(-c3ccc4cc(N5CCNC6(CC6)C5)cc(F)c4n3)cc(C)c2n1 [Compound 804] = 6.00 to 7.00
• C[C@H]1CN(c2ccc3nc(-c4cc5cn(C)nc5c(F)c4O)ncc3c2)C[C@H](C)N1 [Compound 744] = 5.00 to 6.00
• Cc1nc2c(C)c(O)c(-c3ccc4nc(N5CCC(NCC6CC6)C5)ccc4n3)cc2o1 (stereo not shown) [Compound 390] = > 7.00

Parameters: items (list). Returns: pIC50 for each item.
1. Cc1nc2cc(O)c(-c3ccc4nc(N5CC[C@@H](N(C)C(C)(C)C)C5)ccc4n3)cc2o1 [Compound 493]
2. CCc1cn2cc(-c3ncc4cc(N5C[C@H](C)N[C@@H](C)C5)ccc4n3)cc(F)c2n1 [Compound 821]
3. Cc1nc2c(F)c(O)c(-c3ccc4nc(N5CCC(NC6(C)CC6)C5)ccc4n3)cc2o1 (stereo not shown) [Compound 325]
4. Cc1nc2c(C)c(O)c(-c3ccc4nc(N5CCC(NC6CCC6)C5)ccc4n3)cc2o1 (stereo not shown) [Compound 235]
5. Cc1c(O)c(-c2ncc3cc(N4CCC(N5CCC5)CC4)ccc3n2)cc2cn(C)nc12 [Compound 786]
6. Cc1cn2cc(-c3ccc4cc(N5C[C@@H](C)N[C@@H](C)C5)cc(F)c4n3)cc(F)c2n1 [Compound 544]

**A:**
> 7.00
< 5.00
> 7.00
6.00 to 7.00
6.00 to 7.00
5.00 to 6.00

Parameters: items (list). Returns: pIC50 for each item.
1. CNC(=O)c1nc(-c2cc3cn(C)nc3c(C)c2O)nc2ccc(N3C[C@@H](C)N[C@@H](C)C3)cc12 [Compound 511]
2. Cc1nc2c(C)c(O)c(-c3ccc4cc(N5CC[C@@H](NC6CC6)C5)ncc4n3)cc2o1 [Compound 440]
3. C[C@@H]1CN(c2ccc3nc(-c4cc5cn(C)nc5c(F)c4O)ncc3c2)C[C@H](C)N1 [Compound 743]
4. Cc1nc2c(F)c(O)c(-c3ccc4nc(N5CCC(NCC6CC6)C5)ccc4n3)cc2o1 (stereo not shown) [Cmpd 294]
5. Cc1nc2cc(O)c(-c3ccc4nc(N5CC[C@H](NC(C)(C)C)C5)ncc4n3)cc2o1 [Compound 414]

**A:**
5.00 to 6.00
6.00 to 7.00
5.00 to 6.00
> 7.00
5.00 to 6.00
